Target: human mGlu5 receptor (Homo sapiens (Human), UniProt P41594)
Sequence (P41594 21-1212): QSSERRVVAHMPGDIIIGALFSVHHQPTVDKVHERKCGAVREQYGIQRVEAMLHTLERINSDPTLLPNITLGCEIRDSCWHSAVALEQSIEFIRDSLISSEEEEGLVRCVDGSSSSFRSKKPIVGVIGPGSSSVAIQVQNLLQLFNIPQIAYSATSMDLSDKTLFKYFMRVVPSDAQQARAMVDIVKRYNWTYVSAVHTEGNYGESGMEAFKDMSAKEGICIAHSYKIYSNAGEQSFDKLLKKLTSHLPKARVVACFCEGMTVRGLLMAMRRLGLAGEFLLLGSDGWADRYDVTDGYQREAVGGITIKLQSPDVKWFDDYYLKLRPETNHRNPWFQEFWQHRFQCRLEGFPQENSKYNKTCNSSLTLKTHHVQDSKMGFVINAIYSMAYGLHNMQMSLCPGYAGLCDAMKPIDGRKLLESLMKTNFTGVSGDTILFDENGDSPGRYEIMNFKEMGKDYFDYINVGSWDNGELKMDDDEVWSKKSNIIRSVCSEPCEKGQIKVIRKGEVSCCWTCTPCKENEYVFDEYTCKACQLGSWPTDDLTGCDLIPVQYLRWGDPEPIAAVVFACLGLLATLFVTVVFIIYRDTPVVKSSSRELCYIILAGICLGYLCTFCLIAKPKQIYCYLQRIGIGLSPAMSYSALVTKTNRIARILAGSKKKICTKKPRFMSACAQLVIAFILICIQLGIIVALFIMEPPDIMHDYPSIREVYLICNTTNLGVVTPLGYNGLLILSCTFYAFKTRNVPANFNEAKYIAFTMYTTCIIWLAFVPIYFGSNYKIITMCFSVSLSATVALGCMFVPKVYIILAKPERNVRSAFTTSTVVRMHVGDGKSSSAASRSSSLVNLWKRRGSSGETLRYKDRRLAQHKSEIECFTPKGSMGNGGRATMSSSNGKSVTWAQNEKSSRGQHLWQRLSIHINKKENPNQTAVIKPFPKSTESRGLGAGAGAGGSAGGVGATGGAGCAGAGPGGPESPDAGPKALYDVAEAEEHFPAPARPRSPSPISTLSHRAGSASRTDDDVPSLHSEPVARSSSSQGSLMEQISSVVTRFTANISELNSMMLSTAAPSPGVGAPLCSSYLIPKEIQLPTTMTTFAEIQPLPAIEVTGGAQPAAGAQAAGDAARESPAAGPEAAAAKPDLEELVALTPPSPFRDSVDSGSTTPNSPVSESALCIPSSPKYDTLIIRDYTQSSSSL
Experiment: [3H]-M-MPEP radioligand binding assay
Settings: competition with [3H]-M-MPEP, membranes of HEK293 cells transfected with human mGlu5
value_kind: pKi avg

| query_smiles | pKi avg |
| --- | --- |
| COc1cc(C#N)cc(-c2cc(-c3ccc(F)cn3)ncn2)c1 | 8.37 |
| COCc1cc(C#N)cc(-c2cc(-c3ccc(F)cn3)ncn2)c1 | 8.57 |
| N#Cc1cc(Cl)c(F)c(-c2cc(-n3cccn3)ccn2)c1 | 8.37 |
| Cc1cc(C#N)cc(-c2cc(-c3ccccn3)ncn2)c1 | 8.56 |
| N#Cc1cc(Cl)c(F)c(-c2cc(-n3cc(F)cn3)ncn2)c1 | 8.00 |
| N#Cc1cc(CF)cc(-c2cc(-n3cccn3)ncn2)c1 | 8.17 |
| Cc1ccc(-c2cc(-c3cc(C)cc(C#N)c3)ncn2)nc1 | 8.67 |
| N#Cc1cc(Cl)cc(-c2cc(-c3ccncn3)ncn2)c1 | 8.27 |
| N#Cc1cc(C#N)cc(-c2cc(-c3ccccn3)ncn2)c1 | 7.98 |
| N#Cc1cc(Cl)c(F)c(-c2ccnc(-n3cccn3)c2)c1 | 8.16 |
